tested on: UO-31 renal; assay: NCI-60 one-dose screen, 48 h (100 = growth as untreated, 0 = no growth, -100 = all killed); settings: 10 µM
The panel holds about 83,000 compounds, 20% with a hit somewhere; the sample as a whole holds those more often.
Quick rule for you: growth at 80% or higher means condition met, lower means condition not met.

Examples with answers:
COc1cc2c(cc1OC)[C@H](C(=O)O)[C@@H](c1ccc(OC(C)C)c(OC)c1)N(C)C2=O    condition met
O=C(Nc1ccccc1)OCCc1ccccc1    condition met
CC1CCC2C(C)(C)C3CC12CC1OC13C (configuration not stated)    condition met

Evaluate CC(=O)Nc1cccc(Cl)c1C : growth at minimum 80%? condition met

Can O=C(O)CCCCNC(=O)c1ccccc1 be said to have growth at or above 80%? condition met

API: above_or_equal(metric=growth, cutoff=80%) for item CN(C)Cc1cc(C(C)(C)CC(C)(C)C)ccc1O condition not met

Decide: is the reported value of growth for O=C(CC(=O)c1ccccc1O)c1ccccc1 equal to or greater than 80%? condition met

Can O=C(c1ccccc1)C1CCC1 be said to have growth at or above 80%? condition not met

Can Cc1c(O)cnc2nn(-c3ccccc3)c(=N)n12 be said to have growth at or above 80%? condition met

Item CCCCCCCCO with growth of 80% or above? condition met

====

Please go through the items and note down their growth.
tested on: NCI-H23 lung; experiment: NCI-60 one-dose screen, 48 h (100 = growth as untreated, 0 = no growth, -100 = all killed); settings: 10 µM
Compounds without any hit were thinned out: in the full panel of roughly 83,000, 20% have a hit.
Give bare numbers, in %.

Take a look at these entries with their results.
O=C(Nc1cc(-c2ccccc2)[nH]n1)c1ccc(Cl)cc1    87.8
C/C(=C\c1ccc([N+](=O)[O-])cc1)C(=O)O    102
O=c1cc(-c2ccccc2)nc2cc(-c3ccco3)[nH]n12    96.5

Pending compound:
// compound NCC(=O)CCC(=O)O , assay NCI-H23 lung, growth value: 93.8

====

system: MCF7 breast; assay: NCI-60 one-dose screen, 48 h (100 = growth as untreated, 0 = no growth, -100 = all killed); details: 10 µM unless noted
About 83,000 compounds went through this panel and 20% of them were active in at least one assay; those are over-represented in the sample as a whole.
Answer each item with its documented growth.
Answers are plain numbers, in %.

O=C(O)CCC(NC(=O)OCc1ccccc1)C(=O)O (stereo unspecified)    93

Give me growth for each of these molecules, listed below.
1. Nc1ccc(N)c([N+](=O)[O-])c1
2. CCOC(=O)Nc1cc2c(c(N)n1)N=C(c1ccccc1)CO2
3. Cc1ncc(C#N)c(N)n1
4. c1ccc(Sc2ccccc2)cc1

1: 101; 2: 20.4; 3: 99.7; 4: 97.6

Give growth for each listed item.
1. Nc1nc2c(c(-c3nc(N)nc4c3CCc3ccccc3-4)n1)CCc1ccccc1-2
2. CC(C)OC(C(=O)O)c1ccccc1 (stereo unspecified)

[95.4, 93]

====

tested on: BT-549 breast; assay: NCI-60 one-dose screen, 48 h (100 = growth as untreated, 0 = no growth, -100 = all killed); details: 10 µM
Compounds without any hit were thinned out: in the full panel of roughly 83,000, 20% have a hit.
Give measured growth for each item. Keep answers brief.
One number for each entry, in %.

// below: answered compounds
OC(c1ccccn1)C(O)c1ccccn1 (configuration not stated)    106
CCOC(=O)C(O)C(O)C(=O)OCC (configuration not stated)    107
C/C(=N/NC(N)=O)c1ccco1    102

For the 4 compounds below, give their growth values.
1. CCN(CC)CCCC(C)Nc1ccnc(/C=C/c2ccc(Cl)cc2)c1 (configuration not stated)
2. CC(=O)OC(C(=O)O)c1ccccc1 (configuration not stated)
3. S=c1[nH]ccn1-c1ccccc1Cl
4. c1ccc(Sc2ccccc2)cc1

1: 29.1; 2: 122; 3: 117; 4: 100
